assay: Plasma concentrations of anti-HCV drugs by LC-MS/MS; assay type: in vivo, human; conditions: human, in vivo, individual subjects on SOF + DCV + SMV, 3 weeks treatment; 24 h
assay_readout: concentration at 24 h (ng/mL)
Form entry: value (ng/mL) — number only.

Consider the molecule CC(C)OC(=O)[C@H](C)N[P@](=O)(OC[C@H]1O[C@@H](n2ccc(=O)[nH]c2=O)[C@](C)(F)[C@@H]1O)Oc1ccccc1 [SOF, Sofosbuvir] and give its measured concentration at 24 h.
2410

====

assay: Plasma concentrations of anti-HCV drugs by LC-MS/MS; assay type: in vivo, human; conditions: human, in vivo, individual subjects on SOF + DCV + ASV Then SOF + LDV, >3 weeks treatment; 48 h
assay_readout: concentration at 48 h (ng/mL)
Form entry: value (ng/mL) — number only.

Consider the compound `CC(C)OC(=O)[C@H](C)N[P@](=O)(OC[C@H]1O[C@@H](n2ccc(=O)[nH]c2=O)[C@](C)(F)[C@@H]1O)Oc1ccccc1` and give its measured concentration at 48 h.
631

====

assay: Plasma concentrations of anti-HCV drugs by LC-MS/MS; format: in vivo, human; settings: human, in vivo, individual subjects on SOF + DCV + ASV Then SOF + LDV, >3 weeks treatment; 24 h
assay_readout: concentration at 24 h (ng/mL)
Form entry: value (ng/mL) — number only.

Consider the compound `CC(C)OC(=O)[C@H](C)N[P@](=O)(OC[C@H]1O[C@@H](n2ccc(=O)[nH]c2=O)[C@](C)(F)[C@@H]1O)Oc1ccccc1` and give its measured concentration at 24 h.
11.2

====

assay: Plasma concentrations of anti-HCV drugs by LC-MS/MS; type: in vivo, human; conditions: human, in vivo, individual subjects on SOF + LDV + ASV Then SOF + LDV, >3 weeks treatment; 8 h
assay_readout: concentration at 8 h (ng/mL)
Form entry: value (ng/mL) — number only.

Consider the compound CC(C)OC(=O)[C@H](C)N[P@](=O)(OC[C@H]1O[C@@H](n2ccc(=O)[nH]c2=O)[C@](C)(F)[C@@H]1O)Oc1ccccc1 [SOF, Sofosbuvir] and give its measured concentration at 8 h.
0.67

====

test: Plasma concentrations of anti-HCV drugs by LC-MS/MS; assay type: in vivo, human; settings: human, in vivo, individual subjects on SOF + DCV + ASV Then SOF + LDV, >3 weeks treatment; 8 h
assay_readout: concentration at 8 h (ng/mL)
Form entry: value (ng/mL) — number only.

Consider the compound `CC(C)OC(=O)[C@H](C)N[P@](=O)(OC[C@H]1O[C@@H](n2ccc(=O)[nH]c2=O)[C@](C)(F)[C@@H]1O)Oc1ccccc1` and give its measured concentration at 8 h.
9.99

Data provenance is patent US20180311268A1.
